Test system: human Factor XI mRNA
run.description: Dose-dependent antisense inhibition in HepG2 cells, lipofectin (Example 2)
Format: cell-based
measurement.parameters: 18.75 nM, approximately 16 hours
In the oligonucleotide strings, read from the 5' end, every base follows the letter of its sugar. An asterisk marks phosphorothioate; unmarked linkages are phosphodiester. Other units and linkages are bracketed, terminal groups are in braces. A string of capitals states the bases alone. e = 2'-O-(2-methoxyethyl) (MOE); [5mC] = 5-methylcytosine; d = 2'-deoxy (DNA)
Decision: percent inhibition of Factor XI compared against 40%; not below it gives 1, below it gives -1.

# substance, label
rows = [
    ("413481 (antisense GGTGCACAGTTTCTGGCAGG; sugars from the 5' end e5 d10 e5, backbone and methylation of C not given here) [compound 413481]", -1),
    ("412225 (antisense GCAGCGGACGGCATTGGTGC; sugars from the 5' end e5 d10 e5, backbone and methylation of C not given here) [compound 412225]", 1),
    ("412224 (antisense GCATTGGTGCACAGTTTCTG; sugars from the 5' end e5 d10 e5, backbone and methylation of C not given here) [compound 412224]", 1),
    ("413469 (antisense eT*eG*e[5mC]*e[5mC]*e[5mC]*dT*dT*d[5mC]*dA*dT*dG*dT*d[5mC]*dT*dA*eG*eG*eT*e[5mC]*e[5mC]) [compound 413469]", -1),
    ("412212 (antisense e[5mC]*e[5mC]*eG*eG*eG*dA*dT*dG*dA*dT*dG*dA*dG*dT*dG*e[5mC]*eA*eG*eA*eT) [compound 412212]", 1),
    ("413467 (antisense eG*eG*eT*e[5mC]*e[5mC]*dA*d[5mC]*dA*dT*dA*dA*dA*dT*dG*dT*e[5mC]*eT*eT*eT*eG) [compound 413467]", -1),
    ("412206 (antisense e[5mC]*e[5mC]*eG*eT*eG*d[5mC]*dA*dT*d[5mC]*dT*dT*dT*d[5mC]*dT*dT*eG*eG*e[5mC]*eA*eT) [compound 412206]", 1),
    ("412203 (antisense eA*eA*eT*eG*eT*d[5mC]*dT*dT*dT*dG*dT*dT*dG*d[5mC]*dA*eA*eG*e[5mC]*eG*e[5mC]) [compound 412203]", -1),
]

* * *

Test system: human Factor XI mRNA
run.description: Antisense inhibition in HepG2 cells by microwalk gapmers, 75 nM, lipofectin (Example 3)
Format: cell-based
measurement.parameters: HepG2 cells, 75 nM, oligonucleotides targeted to nucleobases 1275 to 1318 of SEQ ID NO: 1
In the oligonucleotide strings, read from the 5' end, every base follows the letter of its sugar. An asterisk marks phosphorothioate; unmarked linkages are phosphodiester. Other units and linkages are bracketed, terminal groups are in braces. A string of capitals states the bases alone. e = 2'-O-(2-methoxyethyl) (MOE); [5mC] = 5-methylcytosine; d = 2'-deoxy (DNA)
Decision: % inhibition of human Factor XI mRNA levels compared against 90%; not below it gives 1, below it gives 0.

# substance, label
rows = [
    ("417020 (antisense e[5mC]*eT*dG*dG*d[5mC]*dA*dG*d[5mC]*dG*dG*dA*d[5mC]*dG*dG*d[5mC]*eA*eT*eT*eG*eG) [compound 417020]", 0),
    ("416931 (antisense eG*eG*e[5mC]*dA*dT*dT*dG*dG*dT*dG*d[5mC]*dA*d[5mC]*dA*dG*dT*dT*eT*e[5mC]*eT) [compound 416931]", 1),
    ("417019 (antisense eT*eG*dG*d[5mC]*dA*dG*d[5mC]*dG*dG*dA*d[5mC]*dG*dG*d[5mC]*dA*eT*eT*eG*eG*eT) [compound 417019]", 0),
    ("416942 (antisense eT*eG*eG*d[5mC]*dA*dG*d[5mC]*dG*dG*dA*d[5mC]*dG*dG*d[5mC]*dA*dT*dT*eG*eG*eT) [compound 416942]", 0),
    ("416855 (antisense e[5mC]*eA*eT*eT*eG*dG*dT*dG*d[5mC]*dA*d[5mC]*dA*dG*dT*dT*eT*e[5mC]*eT*eG*eG) [compound 416855]", 0),
    ("417005 (antisense eA*eT*dT*dG*dG*dT*dG*d[5mC]*dA*d[5mC]*dA*dG*dT*dT*dT*e[5mC]*eT*eG*eG*e[5mC]) [compound 417005]", 0),
    ("416850 (antisense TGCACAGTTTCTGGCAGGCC; 5-10-5 gapmer, wing sugar chemistry not given here, further chemistry not given here) [compound 416850]", 1),
    ("416848 (antisense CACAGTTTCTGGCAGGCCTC; 5-10-5 gapmer, wing sugar chemistry not given here, further chemistry not given here) [compound 416848]", 0),
    ("417001 (antisense eG*eT*dG*d[5mC]*dA*d[5mC]*dA*dG*dT*dT*dT*d[5mC]*dT*dG*dG*e[5mC]*eA*eG*eG*e[5mC]) [compound 417001]", 0),
    ("417016 (antisense e[5mC]*eA*dG*d[5mC]*dG*dG*dA*d[5mC]*dG*dG*d[5mC]*dA*dT*dT*dG*eG*eT*eG*e[5mC]*eA) [compound 417016]", 0),
    ("416929 (antisense e[5mC]*eA*eT*dT*dG*dG*dT*dG*d[5mC]*dA*d[5mC]*dA*dG*dT*dT*dT*d[5mC]*eT*eG*eG) [compound 416929]", 0),
    ("412223 (antisense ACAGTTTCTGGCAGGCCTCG; sugars from the 5' end e5 d10 e5, backbone and methylation of C not given here) [compound 412223]", 0),
]

* * *

// percent inhibition of human Factor XI mRNA lookup, one value per entry
Test system: human Factor XI mRNA
run.description: Dose-dependent inhibition in cyno primary hepatocytes, electroporation (Example 6)
Format: cell-based, cynomolgus monkey
measurement.parameters: 180 nM, approx. 16 h
assay.metric: percent inhibition of human Factor XI mRNA (%)

# substance, reported.result
rows = [
    ("417003 (antisense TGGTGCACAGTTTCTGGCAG; 2-13-5 gapmer, wing sugar chemistry not given here, further chemistry not given here) [compound 417003]", 74),
    ("416858 (antisense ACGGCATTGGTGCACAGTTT; 5-10-5 gapmer, wing sugar chemistry not given here, further chemistry not given here) [compound 416858]", 68),
    ("416864 (antisense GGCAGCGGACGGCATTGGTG; 5-10-5 gapmer, wing sugar chemistry not given here, further chemistry not given here) [compound 416864]", 64),
    ("416850 (antisense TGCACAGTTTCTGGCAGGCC; 5-10-5 gapmer, wing sugar chemistry not given here, further chemistry not given here) [compound 416850]", 67),
    ("417002 (antisense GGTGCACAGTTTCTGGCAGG; 2-13-5 gapmer, wing sugar chemistry not given here, further chemistry not given here) [compound 417002]", 71),
]

* * *

System: Factor XI protein
run.description: Cynomolgus monkeys: plasma Factor XI protein ELISA (Example 29)
Format: in vivo
measurement.parameters: escalating doses 5, 10, 25 mg/kg s.c., day 50
In the oligonucleotide strings, read from the 5' end, every base follows the letter of its sugar. An asterisk marks phosphorothioate; unmarked linkages are phosphodiester. Other units and linkages are bracketed, terminal groups are in braces. A string of capitals states the bases alone. e = 2'-O-(2-methoxyethyl) (MOE); [5mC] = 5-methylcytosine; d = 2'-deoxy (DNA)
// Inhibition of Factor XI protein relative to the PBS control lookup, one value per entry
assay.metric: Inhibition of Factor XI protein relative to the PBS control

# substance, study.system, reported.result
rows = [
    ("ISIS 416850: gapmer of Table 8 (antisense eT*eG*e[5mC]*eA*e[5mC]*dA*dG*dT*dT*dT*d[5mC]*dT*dG*dG*d[5mC]*eA*eG*eG*e[5mC]*e[5mC])", "Factor XI protein", "42%"),
    ("ISIS 417002: gapmer of Table 8 (antisense eG*eG*dT*dG*d[5mC]*dA*d[5mC]*dA*dG*dT*dT*dT*d[5mC]*dT*dG*eG*e[5mC]*eA*eG*eG)", "Factor XI protein", "13%"),
    ("ISIS 416864: gapmer of Table 8 (antisense eG*eG*e[5mC]*eA*eG*d[5mC]*dG*dG*dA*d[5mC]*dG*dG*d[5mC]*dA*dT*eT*eG*eG*eT*eG)", "Factor XI protein", "10%"),
    ("ISIS 416838: gapmer of Table 6 (antisense eG*e[5mC]*eA*eA*e[5mC]*d[5mC]*dG*dG*dG*dA*dT*dG*dA*dT*dG*eA*eG*eT*eG*e[5mC])", "Factor XI protein", "8%"),
    ("ISIS 416858: gapmer of Table 8 (antisense eA*e[5mC]*eG*eG*e[5mC]*dA*dT*dT*dG*dG*dT*dG*d[5mC]*dA*d[5mC]*eA*eG*eT*eT*eT)", "Factor XI protein", "49%"),
]

This collection of values is drawn from patent US20120083522A1.
